Entries and their logP

compound	logP
COc1ccc(CC(C)N)cc1OC (stereo not given)	1.2
O=C(O)COc1cccc(C(F)(F)F)c1	2.36
FC(F)(F)c1ccccc1	3.01
Cc1ccc(C)c2ccccc12	4.37
c1ncc2[nH]cnc2n1	-0.37
CNC(=O)Oc1cc(C)ccc1C(C)C	3.11
CN1C(C(=O)Nc2ccccn2)=C(O)c2ccccc2S1(=O)=O	3.06
Clc1ccccc1Cl	3.43
O=c1cccccc1O	0.53
COc1cccc(O)c1	1.34
Oc1ccc(Br)cc1Br	3.22
Nc1ncnc2c1ncn2[C@H]1C[C@H](O)[C@@H](CO)O1	-0.55
CS(=O)(=O)c1ccccc1	0.5
N#Cc1ccc(OCC(=O)O)cc1	0.93
NC(=O)c1cccnc1	-0.37
Nc1cccc([N+](=O)[O-])c1	1.37
Oc1ccc(O)cc1	0.59
O=[N+]([O-])c1ccc2c(ccc[n+]2[O-])c1	0.39
N#Cc1cccc([N+](=O)[O-])c1	1.17
Cn1c([N+](=O)[O-])cnc1/C=C/c1ccnc(N)n1	0.85
O=C(CCNNC(=O)c1ccncc1)NCc1ccccc1	0.87
CCCCOCCO	0.83
NC(=O)c1cc([N+](=O)[O-])cc([N+](=O)[O-])c1	0.83
CCc1ccccc1Cl	2.95
NC(=O)c1ncccc1O	0.65
Cc1cc([N+](=O)[O-])c2ccccc2[n+]1[O-]	1.25
CN1CCN(CCCN2c3ccccc3Sc3ccc(C(F)(F)F)cc32)CC1	5.03
Cc1ccc(C)c(O)c1	2.33
CC(=O)Nc1ccccn1	0.61
CC(C)(C)[N+](=O)[O-]	1.17
Oc1cccc(Br)c1	2.63
CCc1cccc(OCC(=O)O)c1	2.25
Cc1ccc2c([N+](=O)[O-])cc[n+]([O-])c2c1	1.42
CCOC(C)OCC	0.84
O=[N+]([O-])c1cccc(O)c1	2
Cc1c(Cl)cccc1Nc1ccccc1C(=O)O	5.17
O=[N+]([O-])c1cc[n+]([O-])c2ccccc12	1.09
Cc1cccc(C)c1C	3.66
Nc1cccc2ncccc12	1.16
O=C(O)c1ncccc1O	-1.27
Oc1ccccc1O	0.88
O=[N+]([O-])c1cc[n+]([O-])c2c([N+](=O)[O-])cccc12	0.76
COc1ccc(NC(C)=O)cc1	1.03
C=CCC1(CCCC)C(=O)NC(=O)NC1=O	2.31
Nc1ccc(C(=O)O)cc1Cl	1.52
Cc1ccc(N=C=S)cc1	3.92
CC(=O)c1ccccn1	0.85
CN(Cc1ccccc1)c1ccccc1	4.22
Nc1ccc2cc3ccc(N)cc3nc2c1	1.83
NNC(=O)c1ccnc(Cl)c1	0.11
O=C1C=C(Cl)C(=O)c2ccccc21	2.29
Nc1ccccc1	0.9
CCC(C)C1(CC)C(=O)NC(=O)NC1=O (stereo not given)	1.65
CCCC(C)C1(CC)C(=O)NC(=O)NC1=O (stereo not given)	2.1
COc1ccccc1CO	1.13
CC1CCC(NC(=O)N(CCCl)N=O)CC1 (stereo not given)	3.3
CCC(C)=O	0.29
O=[N+]([O-])c1cccc2c1ccc[n+]2[O-]	0.49
CCC(=O)O	0.33
Cn1cnc2c1c(=O)[nH]c(=O)n2C	-0.78
Cc1c[nH]c(=O)[nH]c1=O	-0.62
CCCCc1ccc(S(N)(=O)=O)cc1	2.45
O=[N+]([O-])c1cccc(Cl)c1	2.46
Nc1ccccn1	0.48
Clc1ccc(-c2ccccc2)cc1	4.61

---

compound	logP
N#Cc1cccc(OCC(=O)O)c1	0.95
O=C(O)COc1ccccc1Br	2.04
NS(=O)(=O)c1ccccc1	0.31
COc1cccc(C(=O)O)c1	2.02
CC(C(=O)O)c1ccc(-c2ccccc2)c(F)c1 (stereo not given)	4.16
CSc1nnc(-c2ccccc2)c(=O)n1N	1.66
[N-]=[N+]=N[C@H]1C[C@H](n2ccc(=O)[nH]c2=O)O[C@@H]1CO	-0.32
c1ccc2[nH]ccc2c1	2.14
CNC(=O)Oc1cc(C)cc(C)c1	2.23
COc1ccccc1C(N)=O	0.86
OCc1ccc(Cl)cc1	1.96
N#Cc1ccc(S(N)(=O)=O)cc1	0.23
COc1ccc2c(c1)c(CC(=O)O)c(C)n2C(=O)c1ccc(Cl)cc1	4.27
Nc1nc(N)c2nc(-c3ccccc3)c(N)nc2n1	0.98
OCCN1CCN(CC/C=C2\c3ccccc3Sc3ccc(Cl)cc32)CC1	4.18

---

Reported logP values follow for various molecules
endpoint: logP

1) CCCCc1ccccc1 4.38
2) c1cncc([C@@H]2CCCCN2)c1 0.97
3) Clc1ccccn1 1.22
4) OCCBr 0.23
5) CCc1ccccc1N 1.74
6) COc1ccccc1C(=O)O 1.59
7) Nc1ccc(C(=O)O)c([N+](=O)[O-])c1 0.38
8) CC(=O)C(C#N)=NNc1cc(C(F)(F)F)ccc1Cl 5.08
9) Brc1ccccc1Br 3.64
10) CC(=O)c1ccc([N+](=O)[O-])cc1 1.53
11) CCCC(C)(COC(N)=O)COC(N)=O 0.7
12) CCc1ccc(O)cc1 2.58
13) O=[N+]([O-])/C=C/c1ccccc1 2.11
14) c1ccc(N2CCCCC2)cc1 2.98
15) O=C1OC(=O)c2ccccc21 1.6
16) O=C1NC(=O)C(c2ccccc2)(c2ccccc2)N1 2.47

---

just bin them by logP: interval 1: < 1; interval 2: ≥ 1 and < 2; interval 3: ≥ 2

molecule	group-label
O=C(O)c1ccc(O)cc1	interval 2
Nc1nc2c(ncn2[C@H]2C[C@H](O)[C@@H](CO)O2)c(=O)[nH]1	interval 1
CCCNC(C)CC (stereo not given)	interval 2
S=C1NCCN1	interval 1
CC(=O)c1ccncc1	interval 1
C=CBr	interval 2
NC1=C(Cl)C(=O)c2ccccc2C1=O	interval 3
CN1CCN(C2=Nc3cc(Cl)ccc3Nc3ccccc32)CC1	interval 3
Oc1ccc(Cl)cc1Cl	interval 3
Cc1cn([C@H]2CC[C@@H](CO)O2)c(=O)[nH]c1=O	interval 1
CN1c2ccccc2C=CC1O (stereo not given)	interval 2
CC1(C)SC2C(NC(=O)C(N)c3ccc(O)cc3)C(=O)N2C1C(=O)O (stereo not given)	interval 1
Oc1ccc(I)cc1	interval 3
Cc1ccc(Cc2cnc(NCCSCc3ccc(C(C)(C)N)o3)[nH]c2=O)cn1	interval 3
Cc1c[nH]c2ccccc12	interval 3
CC(=O)c1ccc(Cl)cc1	interval 3
CCCCC1(CC)C(=O)NC(=O)NC1=O	interval 2
Clc1nc2c(Cl)c(Cl)c(Cl)c(Cl)c2[nH]1	interval 3
CCCCCC1Nc2cc(C(F)(F)F)c(S(N)(=O)=O)cc2S(=O)(=O)N1 (stereo not given)	interval 3
CNC(=O)Oc1ccc(C)cc1	interval 2
O=C1O[C@H]([C@@H](O)CO)C(O)=C1O	interval 1
CC1=CC(=O)c2ccccc2C1=O	interval 3
CC(C)NC(=O)C=Cc1ccc([N+](=O)[O-])o1	interval 2
CC(C)N	interval 1
CC(=O)C(C#N)=NNc1cccc(Cl)c1	interval 3
CCCCCCC(C)=O	interval 3
CCS(=O)(=O)CCn1c([N+](=O)[O-])cnc1C	interval 1
COc1ccc2[nH]ccc2c1	interval 3
CCCCCCCC(C)=O	interval 3
Nc1ccncc1	interval 1
Oc1c(F)c(F)c(F)c(F)c1F	interval 3
CCCn1nnc2ccccc21	interval 3
CC(=O)c1ccc(C)cc1	interval 3
CCOc1ccccc1O	interval 2
COC(=O)C(C#N)=NNc1ccccc1	interval 3
O=C(O)COc1ccccc1I	interval 3
CCCC(C)C1(CC)C(=O)NC(=S)NC1=O (stereo not given)	interval 3
CC(=O)Nc1ccc(Cl)cc1	interval 3
OCC1OC(Oc2ccc(O)cc2)C(O)C(O)C1O (stereo not given)	interval 1
O=C(O)c1cccc(Cl)c1	interval 3
CNC(=O)Oc1ccc(C(C)C)c(C)c1	interval 3
CCC1(CC)C(=O)NC(=O)NC1=O	interval 1
NS(=O)(=O)c1ccc(Cl)c(Cl)c1	interval 2
O=c1ccn(C2C=CC(CO)O2)c(=O)[nH]1 (stereo not given)	interval 1
CC(C)c1nnc(N2CCOCC2)n(N)c1=O	interval 1
O=C(O)CCc1ccccc1	interval 2
CCOC(C)=O	interval 1
CN(C)c1ccc(S(N)(=O)=O)cc1	interval 1
O=C(O)c1cccc2ccccc12	interval 3
O=S(c1ccccc1)c1ccccc1	interval 3
CCN(CC)N=O	interval 1
Cc1ccc(CC(=O)O)cc1	interval 2
CCN(CC)CCOC(=O)c1ccc(N)cc1	interval 3
O=C(O)c1ccc(I)cc1	interval 3
O=C1CCCC(=O)N1	interval 2
CCc1cccc(OC(=O)NC)c1	interval 3
CCCCCC=O	interval 2
O=C(O)COc1ccccc1	interval 2
O=C(O)Cc1ccc([N+](=O)[O-])cc1	interval 2
NC(=O)CCCCc1ccccn1	interval 1
CCCCc1ccc(C(=O)O)nc1	interval 1
Oc1cc(Cl)c(Cl)cc1Cl	interval 3
CNC(=O)Oc1ccc(I)cc1	interval 3
Cc1ccc(O)c(C)c1	interval 3
